System: DMS 273 small cell lung
Procedure text: NCI tumour cell line growth inhibition, 48 h
Measured parameter: TGI

Examples from the recorded data:
1) Cc1cc(=O)[nH]c(NNC(C#N)c2ccccc2O)n1 (stereo not drawn) ... > 100 µM
2) COc1ccc(NC(=O)CC(=O)N/N=C(\C)c2cc3ccccc3oc2=O)cc1 ... > 100 µM

# next compound below
Could you share which TGI value was measured for "Brc1cc(C2OCCCO2)ccc1OCc1ccccc1" ?
> 100 µM

* * *

In this section, each of the compounds is paired with its reported TGI.
Test system: HL-60(TB) leukemia
Procedure text: NCI tumour cell line growth inhibition, 48 h

Examples from the recorded data:
1. CCC1CCCCN1CC(C(C)=O)C(c1ccccc1)c1c(O)c2ccccc2oc1=O (configuration not stated) ... > 100 µM
2. COc1cc(OC)c2c(=O)cc(-c3ccccc3OCc3ccccc3)oc2c1OC ... > 100 µM
3. Cc1cc2nc3ccccc3n2c2ccccc12 ... > 10 µM
4. COC(=O)/C=C\n1nc(Br)c(=O)[nH]c1=O ... > 100 µM

# next compound below
Could you share which TGI value was measured for CC(=O)OCC1OC(n2c(=O)[nH]c(=O)c3n[nH]nc32)C(OC(C)=O)C(OC(C)=O)C1OC(C)=O (configuration not stated) ?
> 100 µM

* * *

In this section, each of the compounds is paired with its reported TGI.
Test system: MDA-MB-231 breast
Procedure text: NCI tumour cell line growth inhibition, 48 h

1) COc1ccc(OC)c2c(C)ccnc12 ... > 100 µM
2) CC(C)[P+](c1ccccc1)(c1ccccc1)c1ccccc1 ... > 100 µM

# next compound below
Could you share which TGI value was measured for COC(=O)c1onc(C2OC(C)(C)OC2C(O)COC(c2ccccc2)(c2ccccc2)c2ccccc2)c1C(=O)OC (stereo not drawn) ?
> 100 µM

* * *

In this section, each of the compounds is paired with its reported TGI.
Tested on: CAKI-1 renal
Procedure text: NCI tumour cell line growth inhibition, 48 h

1) Cc1ccc(N2C(=O)/C(=C/c3ccc(N(CCC#N)CCC#N)cc3)N=C2COc2ccc(Cl)cc2Cl)cc1 ... > 100 µM

Could you share which TGI value was measured for COC(=O)c1c2c(cc3c1CC1(Cc4cc5c(c(C)c4C1)CCC5)C3)CCC2 (stereo not drawn) ?
> 100 µM

Could you share which TGI value was measured for COc1cccc2c1OC1c3ccccc3OCC1(O)C2 (stereo not drawn) ?
> 100 µM

* * *

Tested on: MDA-MB-435
Procedure text: NCI tumour cell line growth inhibition, 48 h
In this section, each of the compounds is paired with its reported TGI.

Examples from the recorded data:
1. OCCCCC#Cc1ccccc1C#Cc1cccnc1 ... > 100 µM
2. COc1cc(F)c(F)cc1C(=O)c1cnc(NC2CCN(S(C)(=O)=O)CC2)nc1N ... > 25 µM
3. COc1cc(S(=O)(=O)Nc2nc(-c3ccc(N4C(=O)C(C)SC4c4ccccc4O)cc3)cs2)ccc1Cl (stereo not given) ... > 100 µM
4. NC1CCCCC1NCCNC1CCCCC1N (stereo not given) ... > 100 µM

Could you share which TGI value was measured for "O=C(O)Cn1c2c(c3c1-c1ccccc1C3=O)C(=O)CCC2" ?
> 100 µM

* * *

In this section, each of the compounds is paired with its reported TGI.
Tested on: SK-MEL-28 melanoma
Procedure text: NCI tumour cell line growth inhibition, 48 h

Examples from the recorded data:
1) COc1c(OC)c(OC)c2c(=O)cc(-c3ccc(OC(C)C)cc3)oc2c1OC ... > 55.4 µM
2) CC(C)C1(NC(=O)C2CC3c4cccc5[nH]cc(c45)CC3N(C)C2)OC2(O)C3CCCN3C(=O)C(Cc3ccccc3)N2C1=O (stereo unspecified) ... > 100 µM
3) CS(=O)(=O)c1ccc(COP(N)(=O)N(CCCl)CCCl)cc1 (stereo unspecified) ... > 100 µM

Could you share which TGI value was measured for O=C1OC(=O)C23CSCC12C1C=CC3O1 (stereo unspecified) ?
> 100 µM

Could you share which TGI value was measured for NC1CCCCC1NCCNC1CCCCC1N (stereo unspecified) ?
> 100 µM

Could you share which TGI value was measured for "N/N=C(/N)SCCCCCCCCCCS/C(N)=N/N" ?
> 100 µM

* * *

In this section, each of the molecules is paired with its reported TGI.
Test system: MDA-MB-435
Procedure text: NCI tumour cell line growth inhibition, 48 h

1) COc1cc(S(=O)(=O)Nc2ccc(-c3csc(N4C(=O)C(Cl)C4c4ccccc4O)n3)cc2)ccc1Cl (stereo not drawn) ... > 100 µM

Could you share which TGI value was measured for "Cc1nn(C)c2ncnc(N/N=C/c3cccc(O)c3O)c12" ?
> 100 µM

Could you share which TGI value was measured for CC(C)(C)c1ccc(C2CC(=O)C3=C(C2)Nc2ccccc2N(C(=O)c2ccccc2Cl)C3c2ccc(F)cc2)cc1 (stereo not drawn) ?
> 100 µM

* * *

Lab note: GI50 readings collected with U251 CNS for the following compounds.

1. CCOC(=O)c1c(-c2ccccc2)[n+](=O)c2cc(F)c(F)cc2n1[O-] ... 1250 nM

Lookup: GI50 / U251 CNS / "CN1CCN(Cc2ccc(NC(=O)c3[nH]ncc3Nc3ncnc4[nH]ccc34)cc2)CC1"
251 nM

Lookup: GI50 / U251 CNS / "Cc1nc(NS(=O)(=O)c2ccc(NCN3C(=O)c4ccccc4C3=O)cc2)oc1C"
> 100000 nM

* * *

Tested on: SF-268 CNS
Procedure text: NCI tumour cell line growth inhibition, 48 h
In this section, each of the compounds is paired with its reported TGI.

Examples from the recorded data:
1) O=[N+]([O-])c1cc(/C=N\NS(=O)(=O)c2ccc(Cl)cc2)c(O)c([N+](=O)[O-])c1 ... > 100 µM
2) CC1CCCC(C#N)(NOC2=NCCN2)C1 (configuration not stated) ... > 100 µM

Could you share which TGI value was measured for "CSc1nnc(SCc2nn3c(=O)cc(C)nc3s2)s1" ?
> 100 µM

Could you share which TGI value was measured for Cc1cc(Cl)cc2c1NC(=O)C2(O)CC(=O)c1ccc(Br)cc1 (configuration not stated) ?
> 100 µM

Could you share which TGI value was measured for CC(C)(C)c1ccc(C2CC(=O)C3=C(C2)Nc2ccccc2N(C(=O)c2ccccc2Cl)C3c2ccc(F)cc2)cc1 (configuration not stated) ?
> 100 µM

Could you share which TGI value was measured for "CC(=O)CC(=O)N1CCSC1=S" ?
> 10 µM

Could you share which TGI value was measured for "COc1ccc(Nc2ncnc3ccc(-c4cncc(NS(C)(=O)=O)c4)cc23)cc1Cl" ?
16.4 µM

* * *

System: OVCAR-5 ovarian
Procedure text: NCI tumour cell line growth inhibition, 48 h
Measured parameter: TGI

Examples from the recorded data:
1) Cn1c2ccccc2n2c3ncccc3c(=O)cc12 ... > 100 µM
2) FC(F)c1ncc(-c2ccc(C(F)(F)F)cc2)c(NC2CCCCCC2)n1 ... > 10 µM
3) O=C(O)Cn1c2c(c3c1-c1ccccc1C3=O)C(=O)CCC2 ... > 100 µM
4) O=Nc1c(-c2c(O)[nH]c3ccc(I)cc23)[nH]c2ccccc12 ... > 27.1 µM

Could you share which TGI value was measured for "COc1ccc(-n2c(N)c(C#N)c(C#N)c2-c2ccco2)cc1" ?
> 100 µM

Could you share which TGI value was measured for COc1cc(S(=O)(=O)Nc2ccc(-c3csc(N4C(=O)C(Cl)C4c4ccccc4O)n3)cc2)ccc1Cl (configuration not stated) ?
> 100 µM

Could you share which TGI value was measured for O=C1CC(C2(O)C(=O)Nc3ccc([N+](=O)[O-])cc32)c2ccccc21 (configuration not stated) ?
> 100 µM

Could you share which TGI value was measured for "Brc1cc(C2OCCCO2)ccc1OCc1ccccc1" ?
92.5 µM

Could you share which TGI value was measured for "COc1cc(OC)c2c(=O)cc(-c3ccccc3OCc3ccccc3)oc2c1OC" ?
84.3 µM

Could you share which TGI value was measured for "C=CC(C)(C)/C=C/c1ccc(O)cc1" ?
> 100 µM

* * *

In this section, each of the compounds is paired with its reported TGI.
Test system: NCI-H460 lung
Procedure text: NCI tumour cell line growth inhibition, 48 h

Examples from the recorded data:
1. CC(=O)c1c[nH]c2ccc(-c3ccnc(Nc4ccc(NC(=O)C5CCCC5)c(CN5CCOCC5)c4)n3)cc12 ... 0.125 µM
2. O=C1OCC2=C1C(c1cccc(C(F)(F)F)c1)c1cc3c(cc1N2CCO)OCCO3 (centres undefined) ... > 33.3 µM
3. COc1cccc(NC(=O)CC(=O)n2nc(-c3ccccc3)c(N=Nc3ccc(Cl)cc3)c2-c2ccccc2)c1 ... > 92.5 µM

Lookup: TGI / NCI-H460 lung / CC12OC(C(=O)C13CC3)C1C(=O)c3c(O)ccc(O)c3C(=O)C12 (centres undefined)
> 100 µM

Lookup: TGI / NCI-H460 lung / "Cc1cc2c(=O)c3ccc(Cl)cc3[nH]c2c(C(N)=O)c1C"
> 100 µM

# credit: PubChem BioAssay (NCI)
